Biological target: Cytochrome P450 2C9 (Homo sapiens)
Experiment: Cytochrome panel assay with activity outcomes
Settings: recombinant CYP, pro-luciferin dealkylation, luminescence, p450-cyp2c9; series mostly up to 57.1 µM
The campaign covered roughly 16,000 compounds. About 4,000 (25%) were called active. Roughly 26% stayed inconclusive and do not appear here. Calls follow the shape of the dose curve; as a rule, active = well fitted curve in the direction sought with a large enough effect; inconclusive = small, poorly fitted or top-dose-only effect, or effect the other way; inactive = no such curve, though single readings can be large or run the other way. Not all results are given here.
Outcomes: class 1 for active, class 0 for inactive

[[record]]
compound = "NC(=O)C(=O)O"
test_target = "Cytochrome P450 2C9 (Homo sapiens)"
cat = "class 0"

[[record]]
compound = "N[C@@H](C(=O)O)c1ccc(C(=O)O)c(O)c1"
test_target = "Cytochrome P450 2C9 (Homo sapiens)"
cat = "class 0"

[[record]]
compound = "N#Cc1cc2[nH]c(=O)c(=O)[nH]c2cc1[N+](=O)[O-]"
test_target = "Cytochrome P450 2C9 (Homo sapiens)"
cat = "class 0"

[[record]]
compound = "CCCSc1nc(SCC(=O)NCc2ccccc2)c2c3c(sc2n1)COC(C)(CC)C3 (stereo not given)"
test_target = "Cytochrome P450 2C9 (Homo sapiens)"
cat = "class 1"

[[record]]
compound = "N#Cc1cccc(NC(=O)N2CCC3(CC2)CCN(C(=O)c2ccco2)CC3)c1"
test_target = "Cytochrome P450 2C9 (Homo sapiens)"
cat = "class 0"

[[record]]
compound = "CCC1(C)Cc2c(sc3nnn(CC(=O)Nc4ccc(C)cc4)c(=O)c23)CO1 (stereo not given)"
test_target = "Cytochrome P450 2C9 (Homo sapiens)"
cat = "class 1"

[[record]]
compound = "COc1ccc(C2/C(=C(/O)c3ccccc3)C(=O)C(=O)N2CC(C)O)c(OC)c1 (stereo not given)"
test_target = "Cytochrome P450 2C9 (Homo sapiens)"
cat = "class 0"

[[record]]
compound = "Cc1ccc(CNCC(O)(c2ccc(F)cc2)c2ccc(F)cc2)cc1"
test_target = "Cytochrome P450 2C9 (Homo sapiens)"
cat = "class 1"

[[record]]
compound = "CCOc1cc(NC(=S)Nc2cccc(C)c2)c(OCC)cc1NC(=O)CC(C)C"
test_target = "Cytochrome P450 2C9 (Homo sapiens)"
cat = "class 0"

[[record]]
compound = "O=C(CCN1C(=O)C2C3C=CC(C3)C2C1=O)Nc1ccc2ncccc2c1 (stereo not given)"
test_target = "Cytochrome P450 2C9 (Homo sapiens)"
cat = "class 0"

[[record]]
compound = "c1ccc2cc(Sc3ncnc4c3oc3ccccc34)ccc2c1"
test_target = "Cytochrome P450 2C9 (Homo sapiens)"
cat = "class 1"

[[record]]
compound = "Cc1ccc(NC(=O)c2cc(Cl)nc3ccccc23)cc1"
test_target = "Cytochrome P450 2C9 (Homo sapiens)"
cat = "class 0"

[[record]]
compound = "Cc1ccc(Cc2c(C)nc3nc(SCC(=O)NCc4ccco4)nn3c2C)cc1"
test_target = "Cytochrome P450 2C9 (Homo sapiens)"
cat = "class 1"

[[record]]
compound = "COc1cc(OC)c(NC(=S)Nc2cccc(C(C)=O)c2)cc1Cl"
test_target = "Cytochrome P450 2C9 (Homo sapiens)"
cat = "class 1"

[[record]]
compound = "O=C(Nc1ncc(Cc2ccccc2)s1)C1COc2ccccc2O1 (stereo not given)"
test_target = "Cytochrome P450 2C9 (Homo sapiens)"
cat = "class 1"

[[record]]
compound = "N[C@H](C(=O)O)c1ccc(O)c(C(=O)O)c1"
test_target = "Cytochrome P450 2C9 (Homo sapiens)"
cat = "class 0"

[[record]]
compound = "O=C(c1cnccn1)N1CCC2(CCCN(c3ccccn3)C2)CC1"
test_target = "Cytochrome P450 2C9 (Homo sapiens)"
cat = "class 0"

[[record]]
compound = "COC(=O)C1=C(C)NC(C)=C([N+](=O)[O-])[C@@H]1c1ccccc1C(F)(F)F"
test_target = "Cytochrome P450 2C9 (Homo sapiens)"
cat = "class 1"

[[record]]
compound = "Cc1c(C(=O)NCCC2=CCCCC2)cccc1[N+](=O)[O-]"
test_target = "Cytochrome P450 2C9 (Homo sapiens)"
cat = "class 0"

[[record]]
compound = "O=C(Nc1nnc(SCc2ccc(Cl)cc2Cl)s1)C1COc2ccccc2O1 (stereo not given)"
test_target = "Cytochrome P450 2C9 (Homo sapiens)"
cat = "class 1"

[[record]]
compound = "O=C(NNC(=O)c1cc(-c2ccc(Cl)c(Cl)c2)nc2ccccc12)Nc1ccccc1"
test_target = "Cytochrome P450 2C9 (Homo sapiens)"
cat = "class 1"

[[record]]
compound = "Cc1nc2nc(SCC(=O)NCc3ccco3)nn2c(C)c1Cc1c(F)cccc1Cl"
test_target = "Cytochrome P450 2C9 (Homo sapiens)"
cat = "class 1"

[[record]]
compound = "Cc1ccc(S(=O)(=O)c2cc(C#N)c(=O)[nH]c2N)cc1"
test_target = "Cytochrome P450 2C9 (Homo sapiens)"
cat = "class 1"

[[record]]
compound = "Cc1ccc(S(=O)(=O)N(CC(=O)NCCC2=CCCCC2)Cc2ccccc2F)cc1"
test_target = "Cytochrome P450 2C9 (Homo sapiens)"
cat = "class 1"

[[record]]
compound = "COC(=O)C1=C(C)NC(C)=C([N+](=O)[O-])[C@H]1c1ccccc1C(F)(F)F"
test_target = "Cytochrome P450 2C9 (Homo sapiens)"
cat = "class 1"

[[record]]
compound = "COc1cccc(OC)c1/C(O)=C(\\C#N)c1nc2ccccc2[nH]1"
test_target = "Cytochrome P450 2C9 (Homo sapiens)"
cat = "class 1"

[[record]]
compound = "CCN(c1ccc(NC(=O)COC(=O)c2ccc3ccccc3n2)cc1)C(C)C"
test_target = "Cytochrome P450 2C9 (Homo sapiens)"
cat = "class 1"

[[record]]
compound = "COC(=O)[C@@]1(Cc2ccc(F)cc2)[C@H]2c3cc(C(=O)N4CCCC4)n(Cc4ccccn4)c3C[C@H]2CN1C(=O)c1ccccc1"
test_target = "Cytochrome P450 2C9 (Homo sapiens)"
cat = "class 1"

[[record]]
compound = "COC(=O)[C@@]1(Cc2ccccc2)[C@H]2c3cc(C(=O)N4CCCC4)n(Cc4ccccn4)c3C[C@H]2CN1C(=O)c1ccccc1"
test_target = "Cytochrome P450 2C9 (Homo sapiens)"
cat = "class 1"

[[record]]
compound = "Clc1ccc(Nc2ncn[nH]2)cc1"
test_target = "Cytochrome P450 2C9 (Homo sapiens)"
cat = "class 0"

[[record]]
compound = "CC(C)(C)S(=O)(=O)c1cnc2c(-c3ccc(F)cc3)cnn2c1N"
test_target = "Cytochrome P450 2C9 (Homo sapiens)"
cat = "class 0"

[[record]]
compound = "O=c1ccc2cc(O)c(O)cc2o1"
test_target = "Cytochrome P450 2C9 (Homo sapiens)"
cat = "class 0"

[[record]]
compound = "O=C(Nc1cccc(NC(=O)c2ccc(-c3cccc(Br)c3)o2)c1)c1ccco1"
test_target = "Cytochrome P450 2C9 (Homo sapiens)"
cat = "class 1"

[[record]]
compound = "CCCSc1nc(NCc2ccco2)c2c3c(sc2n1)COC(C)(C)C3"
test_target = "Cytochrome P450 2C9 (Homo sapiens)"
cat = "class 1"

[[record]]
compound = "Cc1ccc(-c2cnc(NC(=O)CCC(=O)N3CCCCC3)n2C)cc1"
test_target = "Cytochrome P450 2C9 (Homo sapiens)"
cat = "class 0"


====

Target: Cytochrome P450 2C9 (Homo sapiens) (UniProt P11712)
Sequence (P11712 whole entry, looked up): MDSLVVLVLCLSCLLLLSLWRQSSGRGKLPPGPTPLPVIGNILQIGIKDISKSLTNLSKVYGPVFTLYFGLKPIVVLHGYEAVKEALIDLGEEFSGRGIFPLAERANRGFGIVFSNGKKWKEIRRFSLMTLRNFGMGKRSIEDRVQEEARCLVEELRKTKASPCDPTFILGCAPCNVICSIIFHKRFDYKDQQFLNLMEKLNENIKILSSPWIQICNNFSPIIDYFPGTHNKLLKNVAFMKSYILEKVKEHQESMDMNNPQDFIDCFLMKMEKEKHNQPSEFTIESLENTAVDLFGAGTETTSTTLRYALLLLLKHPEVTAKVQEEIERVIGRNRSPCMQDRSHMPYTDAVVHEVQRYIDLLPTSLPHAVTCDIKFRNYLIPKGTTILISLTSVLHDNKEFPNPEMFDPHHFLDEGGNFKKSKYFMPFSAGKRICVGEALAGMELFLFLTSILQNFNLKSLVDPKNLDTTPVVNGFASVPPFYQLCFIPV
Assay: Cytochrome panel assay with activity outcomes
Conditions: recombinant CYP, pro-luciferin dealkylation, luminescence, p450-cyp2c9; series mostly up to 57.1 µM
About 4,000 (25%) of roughly 16,000 compounds were called active. About 26% were inconclusive and are not listed. These entries were drawn from the full list.
Outcome Measure: AC50

[[record]]
molecule = "COc1ncc2nc(-c3ccc(F)cc3)c(=O)n(C)c2n1"
test_target = "Cytochrome P450 2C9 (Homo sapiens) (UniProt P11712)"
reported_result = "inactive"

[[record]]
molecule = "CC(/C=C/c1ccccc1)=N/NC(=O)CNC(=O)c1ccc2c(c1)OCO2"
test_target = "Cytochrome P450 2C9 (Homo sapiens) (UniProt P11712)"
reported_result = "inactive"

[[record]]
molecule = "C[C@H](N=C(NC#N)Nc1ccncc1)C(C)(C)C"
test_target = "Cytochrome P450 2C9 (Homo sapiens) (UniProt P11712)"
reported_result = "inactive"

[[record]]
molecule = "O=C1CCc2cc(OCCCCc3nnnn3C3CCCCC3)ccc2N1"
test_target = "Cytochrome P450 2C9 (Homo sapiens) (UniProt P11712)"
reported_result = "inactive"

[[record]]
molecule = "CC[C@]1(C)CC(=O)NC1=O"
test_target = "Cytochrome P450 2C9 (Homo sapiens) (UniProt P11712)"
reported_result = "inactive"

[[record]]
molecule = "COc1ccc(-c2nn(-c3ccccc3)cc2/C=N/NC(=O)c2ccc3c(c2)OCO3)cc1"
test_target = "Cytochrome P450 2C9 (Homo sapiens) (UniProt P11712)"
reported_result = "3.16 µM (active)"

[[record]]
molecule = "O=C(c1cc(C(F)(F)F)cc(C(F)(F)F)c1)N1CCC[C@@]2(CCN(c3ncccn3)C2)C1"
test_target = "Cytochrome P450 2C9 (Homo sapiens) (UniProt P11712)"
reported_result = "inactive"

[[record]]
molecule = "CCOc1ccc(-c2cc(CCCC(=O)NCCc3ccc(OC)c(OC)c3OC)no2)cc1"
test_target = "Cytochrome P450 2C9 (Homo sapiens) (UniProt P11712)"
reported_result = "1 µM (active)"

[[record]]
molecule = "O=C(N/N=C\\c1cn(-c2ccccc2)nc1-c1ccccc1)c1ccc2c(c1)OCO2"
test_target = "Cytochrome P450 2C9 (Homo sapiens) (UniProt P11712)"
reported_result = "3.98 µM (active)"

[[record]]
molecule = "CCOC(=O)c1c(-c2ccccc2)nc2c(C)cccn12"
test_target = "Cytochrome P450 2C9 (Homo sapiens) (UniProt P11712)"
reported_result = "11.2 µM (active)"

[[record]]
molecule = "CN(C(=S)Nc1ccccc1F)C1(c2ccccc2Cl)CCCCC1=O (centres undefined)"
test_target = "Cytochrome P450 2C9 (Homo sapiens) (UniProt P11712)"
reported_result = "17.8 µM (active)"

[[record]]
molecule = "Cc1ccccc1CNc1ncnc2c1ncn2[C@@H]1O[C@@H](CO)[C@H](O)[C@@H]1O"
test_target = "Cytochrome P450 2C9 (Homo sapiens) (UniProt P11712)"
reported_result = "inactive"

[[record]]
molecule = "CCN(C(=S)Nc1ccccc1F)C1CCCCC1"
test_target = "Cytochrome P450 2C9 (Homo sapiens) (UniProt P11712)"
reported_result = "inactive"

[[record]]
molecule = "CC(C)(C)C(=O)NC(=C(Cl)Cl)P(=O)(O)O"
test_target = "Cytochrome P450 2C9 (Homo sapiens) (UniProt P11712)"
reported_result = "inactive"

[[record]]
molecule = "CCN(CC)CCNC(=O)c1cc(Br)c(N)cc1OC"
test_target = "Cytochrome P450 2C9 (Homo sapiens) (UniProt P11712)"
reported_result = "inactive"

[[record]]
molecule = "CCc1ccc(OCCCC(=O)Nc2ccc(N3CCCCC3)cc2)cc1"
test_target = "Cytochrome P450 2C9 (Homo sapiens) (UniProt P11712)"
reported_result = "inactive"

[[record]]
molecule = "Cn1cnc2c(NCc3ccccc3)nc(NCCO)nc21"
test_target = "Cytochrome P450 2C9 (Homo sapiens) (UniProt P11712)"
reported_result = "inactive"

[[record]]
molecule = "Cc1cc(C)n(-c2nc(NC(C)C)nc(NC(C)C)n2)n1"
test_target = "Cytochrome P450 2C9 (Homo sapiens) (UniProt P11712)"
reported_result = "inactive"

[[record]]
molecule = "Cc1c(/C=N/NC(=O)c2ccc3c(c2)OCO3)cnn1C"
test_target = "Cytochrome P450 2C9 (Homo sapiens) (UniProt P11712)"
reported_result = "inactive"


Provenance of the data: PubChem BioAssay AID1851
